The measured values listed here are drawn from ChEMBL document CHEMBL1143670.

test system: KG-1; assay: Inhibition of cell proliferation of KG1 cells; assay type: functional, cell-based; details: Homo sapiens
Examples of molecules with documented IC50 follow.

Some solved cases for reference:
{"columns": ["molSmiles", "IC50"],
 "data": [
  ["OB(O)/C=C/c1ccc(-c2ccc(O)c(C34CC5CC(CC(C5)C3)C4)c2)c(Cl)c1", "> 5 µM"],
  ["N#CC(C#N)=Cc1ccc(-c2ccc(O)c(C34CC5CC(CC(C5)C3)C4)c2)c(Cl)c1", "> 5 µM"]
]}

# IC50 of O=C(/C=C/c1ccc(-c2ccc(O)c(C34CC5CC(CC(C5)C3)C4)c2)c(Cl)c1)NO = > 5 µM

====

assay: Growth inhibition of primary HMVE cells after 72 hrs; type: functional, cell-based; details: Homo sapiens
endpointName: IC50 (nM)
Express it in nM; write the number only.

// IC50 value for O=C(O)/C=C/c1ccc(-c2ccc(O)c(C34CC5CC(CC(C5)C3)C4)c2)c(Cl)c1 : 300

====

test: Antiproliferative activity against HMVE cells; assay type: functional, cell-based; details: Homo sapiens
This listing pairs compounds with measured IC50.

Illustrative cases are given below, each with its answer.
{"columns": ["molSmiles", "endpointName", "readoutValue"],
 "data": [
  ["O=C(O)/C=C/c1ccc(-c2ccc(O)c(C34CC5CC(CC(C5)C3)C4)c2)c(Cl)c1", "IC50", "300 nM"],
  ["O=C(O)c1ccc2ccc(-c3ccc(O)c(C45CC6CC(CC(C6)C4)C5)c3)cc2c1", "IC50", "> 500 nM"]
]}

From here, focus on the item given below.
# IC50 of Oc1ccc2cc(-c3ccc(O)c(C45CC6CC(CC(C6)C4)C5)c3)ccc2c1 = > 500 nM

====

# Lookup of reported IC50 keyed by entry
system: MDA-MB-231; test: Growth inhibition of retinoid-resistant MDA-MB-231 cells after 72 hrs; format: functional, cell-based; conditions: Homo sapiens, MDA-MB-231, 72 h

IC50 for O=C1NC(=O)/C(=C/c2ccc(-c3ccc(O)c(C45CC6CC(CC(C6)C4)C5)c3)c(Cl)c2)S1 is 18 µM

====

test system: MDA-MB-231; assay: Growth inhibition of retinoid-resistant MDA-MB-231 cells after 72 hrs; assay type: functional, cell-based; conditions: Homo sapiens, MDA-MB-231, 72 h
endpointName: pIC50
pIC50 field: float, defined as -log10 of concentration (mol/L).

Some compounds with recorded pIC50:
{"columns": ["molSmiles", "endpointName", "readoutValue"],
 "data": [
  ["O=C1NC(=O)/C(=C/C=C/c2ccc(-c3ccc(O)c(C45CC6CC(CC(C6)C4)C5)c3)c(Cl)c2)S1", "pIC50", 4.62],
  ["O=C(/C=C/c1ccc(-c2ccc(O)c(C34CC5CC(CC(C5)C3)C4)c2)c(Cl)c1)NO", "pIC50", 5.20],
  ["OB(O)/C=C/c1ccc(-c2ccc(O)c(C34CC5CC(CC(C5)C3)C4)c2)c(Cl)c1", "pIC50", 4.72],
  ["O=C(O)/C=C/c1ccc(-c2ccc(O)c(C34CC5CC(CC(C5)C3)C4)c2)c(Cl)c1", "pIC50", 5.74]
]}

Summary for this compound, Oc1ccc(-c2ccc(-c3nnn[nH]3)cc2Cl)cc1C12CC3CC(CC(C3)C1)C2 : pIC50 is 4.15

The reported pIC50 of the compound Oc1ccc(-c2ccc(/C=C/c3nnn[nH]3)cc2Cl)cc1C12CC3CC(CC(C3)C1)C2 was 4.68

So for O=CC(=O)/C=C/c1ccc(-c2ccc(O)c(C34CC5CC(CC(C5)C3)C4)c2)c(Cl)c1 , the logged pIC50 turned out to be 4.85
